Assay: Pharmacokinetic study in mice
Assay type: in vivo, mouse
Settings: male, CD-1, mouse, plasma, PO 3 mg/kg
Result type: Cmax (nM)
Numbers only, in nM.

Entry "CC1(C)CN(C(=O)NCCCCO)CCN1Cc1cccc(C(=O)Nc2sc3c(c2C(=O)Nc2cc(F)c(CCc4ccc(C(=O)O)cc4)c(F)c2)CCCC3)c1" ; Cmax = 50

---

Test: Pharmacokinetic study in mice
Assay type: in vivo, mouse
Settings: male, CD-1, mouse, plasma, PO 1 mg/kg
Experimental: Male CD‐1 male mice were orally dosed with 1, 3, or 10 mg/kg API of LY3358966 SDD dissolved in water or were IV dosed with 1 mg/kg LY3358966 formulated in 25% dimethylacetamide, 15% ethanol, 10% propylene glycol, 25% 2‐pyrrolidone, and 25% water. Each dose group contained six animals. […] Plasma drug levels were determined by HPLC/MS. The unbound fraction of LY3358966 in plasma was determined with equilibrium dialysis and LC‐MS/MS.
Result type: Cmax (nM)
Answers are plain numbers, in nM.

Entry CC1(C)CN(C(=O)NCCCCO)CCN1Cc1cccc(C(=O)Nc2sc3c(c2C(=O)Nc2cc(F)c(CCc4ccc(C(=O)O)cc4)c(F)c2)CCCC3)c1 [LY3358966] ; Cmax = 25

---

Biological target: Human NPT2a (Homo sapiens)
Construct: Full Length cDNA Cloning and Generation of Cell Lines Over-Expressing Human NPT2a, NPT2c, Pit1, and Pit2
Sequence (Q06495 whole entry): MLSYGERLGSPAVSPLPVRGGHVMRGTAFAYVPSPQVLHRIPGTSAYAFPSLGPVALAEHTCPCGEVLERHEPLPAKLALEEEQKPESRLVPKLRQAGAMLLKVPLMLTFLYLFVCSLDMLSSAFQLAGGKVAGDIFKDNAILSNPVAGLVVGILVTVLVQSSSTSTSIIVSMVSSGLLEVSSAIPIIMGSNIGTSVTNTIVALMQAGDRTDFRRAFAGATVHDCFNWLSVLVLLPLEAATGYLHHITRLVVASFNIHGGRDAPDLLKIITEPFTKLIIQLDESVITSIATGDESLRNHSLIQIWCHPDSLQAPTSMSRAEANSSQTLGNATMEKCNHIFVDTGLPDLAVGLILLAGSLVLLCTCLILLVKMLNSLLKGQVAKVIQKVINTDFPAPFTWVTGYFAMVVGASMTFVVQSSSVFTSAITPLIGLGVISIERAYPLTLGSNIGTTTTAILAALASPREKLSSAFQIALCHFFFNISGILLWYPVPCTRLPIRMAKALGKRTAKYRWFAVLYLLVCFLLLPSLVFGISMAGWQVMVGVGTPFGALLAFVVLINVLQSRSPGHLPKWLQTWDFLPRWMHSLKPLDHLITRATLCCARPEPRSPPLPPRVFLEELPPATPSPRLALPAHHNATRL
Test: 33P-phosphate uptake in CHO cells expressing human NPT2a
Conditions: geometric mean; 45 min at 20°C
Result type: IC50 (nM)
Give bare numbers, in nM.

Entry CC1(C)CN(C(=O)NCCCCO)CCN1Cc1cccc(C(=O)Nc2sc3c(c2C(=O)Nc2cc(F)c(CCc4ccc(C(=O)O)cc4)c(F)c2)CCCC3)c1 [LY3358966] ; IC50 = 11

---

Experiment: Pharmacokinetic study in mice
Type: in vivo, mouse
Conditions: male, CD-1, mouse, plasma, IV 1 mg/kg
Result type: AUC (µM·h)
Answers are plain numbers, in µM·h.

Entry "CC1(C)CN(C(=O)NCCCCO)CCN1Cc1cccc(C(=O)Nc2sc3c(c2C(=O)Nc2cc(F)c(CCc4ccc(C(=O)O)cc4)c(F)c2)CCCC3)c1" ; AUC = 0.323

---

Test: Pharmacokinetic study in mice
Assay type: in vivo, mouse
Details: male, CD-1, mouse, plasma, po, 10 mg/kg, PO 1, 3 and 10 mg/kg, read-out: oral bioavailability F
Result type: bioavailability

Entry "CC1(C)CN(C(=O)NCCCCO)CCN1Cc1cccc(C(=O)Nc2sc3c(c2C(=O)Nc2cc(F)c(CCc4ccc(C(=O)O)cc4)c(F)c2)CCCC3)c1" ; bioavailability = 9 to 12%

---

Assay: Pharmacokinetic study in mice
Format: in vivo, mouse
Settings: male, CD-1, mouse, plasma, PO 10 mg/kg, SDD dissolved in water
Result type: AUC (µM·h)
Give bare numbers, in µM·h.

Entry CC1(C)CN(C(=O)NCCCCO)CCN1Cc1cccc(C(=O)Nc2sc3c(c2C(=O)Nc2cc(F)c(CCc4ccc(C(=O)O)cc4)c(F)c2)CCCC3)c1 [LY3358966] ; AUC = 0.284

---

Experiment: Pharmacokinetic study in mice
Format: in vivo, mouse
Conditions: male, CD-1, mouse, plasma, PO 3 mg/kg, SDD dissolved in water
Result type: AUC
Could you kindly put the unit after your number?

Entry CC1(C)CN(C(=O)NCCCCO)CCN1Cc1cccc(C(=O)Nc2sc3c(c2C(=O)Nc2cc(F)c(CCc4ccc(C(=O)O)cc4)c(F)c2)CCCC3)c1 [LY3358966] ; AUC = 0.096 µM·h

---

Target: rat NPT2b (Rattus norvegicus)
Construct: Full-Length cDNA Cloning and Generation of Cell Lines Over-Expressing Human, Mouse, and Rat NPT2b
Sequence (Q9JJ09 1-695): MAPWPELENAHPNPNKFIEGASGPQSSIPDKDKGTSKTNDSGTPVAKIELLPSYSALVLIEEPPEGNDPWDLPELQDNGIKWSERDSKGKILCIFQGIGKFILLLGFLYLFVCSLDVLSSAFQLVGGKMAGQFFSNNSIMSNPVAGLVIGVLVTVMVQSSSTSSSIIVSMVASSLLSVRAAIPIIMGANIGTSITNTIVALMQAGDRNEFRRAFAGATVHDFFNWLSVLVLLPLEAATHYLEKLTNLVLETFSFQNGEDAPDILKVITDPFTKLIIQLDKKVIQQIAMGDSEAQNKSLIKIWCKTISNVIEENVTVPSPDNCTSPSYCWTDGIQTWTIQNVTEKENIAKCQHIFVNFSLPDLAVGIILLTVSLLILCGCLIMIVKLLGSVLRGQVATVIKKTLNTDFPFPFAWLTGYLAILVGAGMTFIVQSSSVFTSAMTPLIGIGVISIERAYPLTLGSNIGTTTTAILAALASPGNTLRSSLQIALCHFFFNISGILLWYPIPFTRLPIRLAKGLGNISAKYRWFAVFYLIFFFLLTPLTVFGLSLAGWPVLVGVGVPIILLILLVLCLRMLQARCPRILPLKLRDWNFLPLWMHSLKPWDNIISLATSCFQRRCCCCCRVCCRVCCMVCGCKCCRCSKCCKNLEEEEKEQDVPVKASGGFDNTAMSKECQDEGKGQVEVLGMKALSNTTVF
Assay: 33P-phosphate uptake in CHO cells expressing rat NPT2b
Details: geometric mean; 2.5 µM phosphate, 60 min, room temperature
Result type: IC50 (nM)
One number for each entry, in nM.

Entry "CC1(C)CN(C(=O)NCCCCO)CCN1Cc1cccc(C(=O)Nc2sc3c(c2C(=O)Nc2cc(F)c(CCc4ccc(C(=O)O)cc4)c(F)c2)CCCC3)c1" ; IC50 = 26.8
